Tested on: human airway epithelial cells (HAECs)
Assay: High-throughput sequencing (HTS) of miRNAs at four stages of differentiation of HAECs
Settings: stage D0; Table VI
Source text: The total RNAs were extracted from HAECs cultivated at the air-liquid interface at four stages of differentiation: ALI-D0 (0 day), ALI-D7 (7 days), ALI-FC (during appearance of the first cilia at about 14 days) and ALI-WD (wholly differentiated at about 21 days). The cells are lysed in reagent with Trizol® (Invitrogen). The total RNAs containing small RNAs and microRNAs are purified on Qiagen RNEasy columns (Qiagen) according to the supplier's instructions. […]
Quick list: Level of intensity of expression in log2 measured by high-throughput sequencing, D0 per entry.
# number only, unit log2 dropped from output

Here are 5 substances together with their reported answers.
Substance | Meas value
hsa-miR-16: human miRNA, SEQ ID No. 10 (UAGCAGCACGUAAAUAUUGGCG; expressed or natural sequence; listed as Homo sapiens) | 3.13
hsa-miR-425: human miRNA, SEQ ID No. 44 (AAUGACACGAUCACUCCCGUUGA; expressed or natural sequence; listed as Homo sapiens) | 10.58
hsa-miR-130a: human miRNA, SEQ ID No. 4 (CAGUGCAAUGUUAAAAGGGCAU; expressed or natural sequence; listed as Homo sapiens) | 13.91
hsa-miR-17: human miRNA, SEQ ID No. 11 (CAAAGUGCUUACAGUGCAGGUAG; expressed or natural sequence; listed as Homo sapiens) | 12.85
hsa-miR-193b: human miRNA, SEQ ID No. 14 (AACUGGCCCUCAAAGUCCCGCU; expressed or natural sequence; listed as Homo sapiens) | 13.26

Level of intensity of expression in log2 measured by high-throughput sequencing, D0 measured on hsa-let-7c: human miRNA, SEQ ID No. 159 (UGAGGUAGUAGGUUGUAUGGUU; expressed or natural sequence; listed as Homo sapiens) = 6.96

Summary for this substance, hsa-miR-30e: human miRNA, SEQ ID No. 36 (UGUAAACAUCCUUGACUGGAAG; expressed or natural sequence; listed as Homo sapiens) : Level of intensity of expression in log2 measured by high-throughput sequencing, D0 is 7.04

Values compiled from patent US9023821B2.
